Hey, just so you know, these numbers are from paper PMC12888920.

Catalogue of pEC50 readings, one per entry.
system: RSV B18537; test: Antiviral activity (FFA) against RSV B18537 in HBEC; assay type: cell-based; conditions: human respiratory syncytial virus; HBEC, RSV B18537, MOI = 0.3, 72 hpi; read-out: EC50
Scale: pEC50 equals -log10([C]), with [C] in mol/L.

>>> quantitative_readout("Cc1cnc(N2CC3(CCOCC3)C2)c(C(=O)Nc2ccc(C(=O)N3CCc4cc(C(=O)Nc5c(C)cccc5F)sc4-c4ccccc43)cc2)c1")
7.33

// moving on: another record for pEC50
Problem: What value of pEC50 has been recorded for this entry: `C[C@H]1c2cccc(O)c2C(=O)C2=C(O)[C@]3(O)C(=O)C(C(N)=O)=C(O)[C@@H](N(C)C)[C@@H]3[C@@H](O)[C@@H]21`
Result: 6.09

----------
tested on: RSV A2; assay: Antiviral activity (FFA) against RSV A2 in primary human bronchial epithelial cells (HBEC); type: cell-based; settings: human respiratory syncytial virus, Epithelial cell
observation_type: EC50 (nM)
Respond numerically; units are nM and should not be typed.

Problem: What value of EC50 has been recorded for this entry: CC(C)=CCc1c(O)c(CC=C(C)C)c2oc3c(O)ccc(O)c3c(=O)c2c1O [Gartanin]
Result: 625
